# Test system: Vero
# assay-details: Cytotoxicity against african green monkey Vero cells at after 72 hrs by MTT assay
# Assay type: cell-based, Chlorocebus sabaeus
# measurement-conditions: Chlorocebus sabaeus, Vero, 72 h; read-out: IC50
metric: IC50 (µg/mL)
Entry rule: numbers only, all in µg/mL.

As a guide, the following entries are already answered.
>  <compound>
c1ccc(CCN2CCN([C@H](CC3CCCCC3)CN3CCCC3CN3CCNC[C@@H]3Cc3ccccc3)C[C@@H]2Cc2ccccc2)cc1 (some centres undefined)

>  <readout-number>
0.92

$$$$
>  <compound>
Cc1cccc(CCN2CCN([C@@H](Cc3ccccc3)CN3CCCC3CN3CCNC[C@@H]3Cc3ccccc3)C[C@@H]2Cc2ccccc2)c1 (some centres undefined)

>  <readout-number>
1.05

$$$$
>  <compound>
CCC(C)CN1CCN([C@@H](Cc2ccccc2)CN2CCCC2CN2CCNC[C@@H]2Cc2ccccc2)C[C@@H]1Cc1ccccc1 (some centres undefined)

>  <readout-number>
0.7

$$$$
>  <compound>
CC(C)(C)C1CCC(CN2C(=N)N([C@@H](Cc3ccccc3)CN3CCCC3CN3C(=N)NC[C@@H]3Cc3ccccc3)C[C@@H]2Cc2ccccc2)CC1 (some centres undefined)

>  <readout-number>
15.2

$$$$

Q. Which IC50 value is on record for NC[C@H](Cc1ccc2ccccc2c1)NC[C@@H]1CCCN1C[C@H](Cc1ccccc1)NC[C@H](Cc1ccccc1)NCCc1ccccc1 ?
A. 4.23

Q. Which IC50 value is on record for N=C1NC[C@H](Cc2ccccc2)N1CC1CCCN1C[C@H](Cc1ccccc1)N1C[C@H](Cc2ccccc2)N(CCC23CC4CC(CC(C4)C2)C3)C1=N (some centres undefined) ?
A. 14.5

Q. Which IC50 value is on record for CCC(C)CCN1C(=N)N([C@@H](Cc2ccccc2)CN2CCCC2CN2C(=N)NC[C@@H]2Cc2ccccc2)C[C@@H]1Cc1ccccc1 (some centres undefined) ?
A. 32.3

---

# Tested on: Vero
# assay-details: Cytotoxicity against african green monkey Vero cells at after 72 hrs by MTT assay
# Format: cell-based, Chlorocebus sabaeus
# measurement-conditions: Chlorocebus sabaeus, Vero, 72 h; read-out: IC50
Quick reference: log10 of IC50 of the listed items.
Response schema: value (number) is log10 of IC50 in units of µg/mL.

As a guide, the following entries are already answered.
>  <compound>
CCC(C)CCN1CCN([C@@H](Cc2ccccc2)CN2CCCC2CN2CCNC[C@@H]2Cc2ccccc2)C[C@@H]1Cc1ccccc1 (some centres undefined)

>  <readout-number>
0.00

$$$$
>  <compound>
COc1ccc(CCN2CCN([C@@H](Cc3ccccc3)CN3CCCC3CN3CCNC[C@@H]3Cc3ccccc3)C[C@@H]2Cc2ccccc2)cc1 (some centres undefined)

>  <readout-number>
-0.48

$$$$
>  <compound>
Clc1ccc(CCN2CCN([C@@H](Cc3ccccc3)CN3CCCC3CN3CCNC[C@@H]3Cc3ccccc3)C[C@@H]2Cc2ccccc2)cc1Cl (some centres undefined)

>  <readout-number>
0.03

$$$$
>  <compound>
Fc1cccc(CCN2CCN([C@@H](Cc3ccccc3)CN3CCCC3CN3CCNC[C@@H]3Cc3ccccc3)C[C@@H]2Cc2ccccc2)c1 (some centres undefined)

>  <readout-number>
-0.10

$$$$
>  <compound>
c1ccc(CCN2CCN([C@H](Cc3ccc4ccccc4c3)CN3CCCC3CN3CCNC[C@@H]3Cc3ccccc3)C[C@@H]2Cc2ccccc2)cc1 (some centres undefined)

>  <readout-number>
0.03

$$$$

Q. Which log10 of IC50 value is on record for c1ccc(C[C@H]2CNCCN2CC2CCCN2C[C@H](Cc2ccccc2)N2CCN(CCCCC3CCCCC3)[C@@H](Cc3ccccc3)C2)cc1 (some centres undefined) ?
A. 0.00

Q. Which log10 of IC50 value is on record for Brc1cccc(CCCN2CCN([C@@H](Cc3ccccc3)CN3CCCC3CN3CCNC[C@@H]3Cc3ccccc3)C[C@@H]2Cc2ccccc2)c1 (some centres undefined) ?
A. 0.05

Q. Which log10 of IC50 value is on record for N=C1NC[C@H](Cc2ccccc2)N1CC1CCCN1C[C@H](Cc1ccccc1)N1C[C@H](Cc2ccccc2)N(CC2CCCCCC2)C1=N (some centres undefined) ?
A. 1.60

Q. Which log10 of IC50 value is on record for N=C1NC[C@H](Cc2ccccc2)N1CC1CCCN1C[C@H](Cc1ccccc1)N1C[C@H](Cc2ccccc2)N(CCc2ccc(Cl)c(Cl)c2)C1=N (some centres undefined) ?
A. 1.39

Q. Which log10 of IC50 value is on record for c1ccc(C[C@H]2CNCCN2CC2CCCN2C[C@H](Cc2ccccc2)N2CCN(CC3CCCCC3)[C@@H](Cc3ccccc3)C2)cc1 (some centres undefined) ?
A. -0.15

Q. Which log10 of IC50 value is on record for S=C1NC[C@H](Cc2ccccc2)N1CC1CCCN1C[C@H](Cc1ccccc1)N1C[C@H](Cc2ccccc2)N(CC2CCCCC2)C1=S (some centres undefined) ?
A. 0.93

---

Quick reference: MIC of the listed items.
# Test system: Mycobacterium tuberculosis
# assay-details: Antimicrobial activity against Mycobacterium tuberculosis H37Rv ATCC 27294 by microplate Almar blue assay
# Assay type: functional
# measurement-conditions: Mycobacterium tuberculosis, H37Rv ATCC 27294; read-out: MIC
Entry rule: numbers only, all in µg/mL.

>  <compound>
CCCCCCCN1CCN([C@@H](Cc2ccccc2)CN2CCCC2CN2CCNC[C@@H]2Cc2ccccc2)C[C@@H]1Cc1ccccc1 (stereo partly drawn)

>  <MIC [µg/mL]>
3.9

$$$$

Q. Which MIC value is on record for NC[C@H](Cc1ccccc1)NC[C@@H]1CCCN1C[C@H](Cc1ccccc1)NC[C@H](Cc1ccccc1)NCCC12CC3CC(CC(C3)C1)C2 ?
A. 3.13

Q. Which MIC value is on record for N=C1NC[C@H](Cc2ccccc2)N1C[C@@H]1CCCN1C[C@H](Cc1ccccc1)N1C[C@H](Cc2ccccc2)N(CC23CC4CC(CC(C4)C2)C3)C1=N ?
A. 3.9

---

Quick reference: IC50 of the listed items.
# Tested on: Vero
# assay-details: Cytotoxicity against african green monkey Vero cells at after 72 hrs by MTT assay
# Type: cell-based, Chlorocebus sabaeus
# measurement-conditions: Chlorocebus sabaeus, Vero, 72 h; read-out: IC50
In your response, put the unit directly after the numeric value.

As a guide, the following entries are already answered.
>  <molecule>
c1ccc(C[C@H]2CNCCN2CC2CCCN2C[C@H](Cc2ccccc2)N2CCN(CCC3CCCCC3)[C@@H](Cc3ccccc3)C2)cc1 (some centres undefined)

>  <test-system>
Vero

>  <result>
0.62 µg/mL

$$$$
>  <molecule>
N=C1NC[C@H](Cc2ccccc2)N1CC1CCCN1C[C@H](Cc1ccccc1)N1C[C@H](Cc2ccccc2)N(CCC2CC3CCC2C3)C1=N (some centres undefined)

>  <test-system>
Vero

>  <result>
15.5 µg/mL

$$$$
>  <molecule>
CCOc1ccc(CCN2CCN([C@@H](Cc3ccccc3)CN3CCCC3CN3CCNC[C@@H]3Cc3ccccc3)C[C@@H]2Cc2ccccc2)cc1 (some centres undefined)

>  <test-system>
Vero

>  <result>
1.03 µg/mL

$$$$

The record that follows has no IC50 shown yet.
Q. Which IC50 value is on record for Fc1ccc(CCN2CCN([C@@H](Cc3ccccc3)CN3CCCC3CN3CCNC[C@@H]3Cc3ccccc3)C[C@@H]2Cc2ccccc2)cc1 (some centres undefined) ?
A. 1.05 µg/mL

---

# Test system: Mycobacterium tuberculosis
# assay-details: Antimicrobial activity against Mycobacterium tuberculosis H37Rv ATCC 27294 by microplate Almar blue assay
# Assay type: functional
# measurement-conditions: Mycobacterium tuberculosis, H37Rv ATCC 27294; read-out: MIC
metric: MIC

As a guide, the following entries are already answered.
>  <compound>
Oc1ccc(CCN2CCN([C@@H](Cc3ccccc3)CN3CCCC3CN3CCNC[C@@H]3Cc3ccccc3)C[C@@H]2Cc2ccccc2)cc1 (some centres not stated)

>  <test-system>
Mycobacterium tuberculosis

>  <result>
3.9 µg/mL

$$$$
>  <compound>
CC(C)CCCN1CCN([C@@H](Cc2ccccc2)CN2CCCC2CN2CCNC[C@@H]2Cc2ccccc2)C[C@@H]1Cc1ccccc1 (some centres not stated)

>  <test-system>
Mycobacterium tuberculosis

>  <result>
2 µg/mL

$$$$
>  <compound>
CC1CCC(CN2CCN([C@@H](Cc3ccccc3)CN3CCCC3CN3CCNC[C@@H]3Cc3ccccc3)C[C@@H]2Cc2ccccc2)CC1 (some centres not stated)

>  <test-system>
Mycobacterium tuberculosis

>  <result>
6.25 µg/mL

$$$$
>  <compound>
N=C1NC[C@H](Cc2ccccc2)N1CC1CCCN1C[C@H](Cc1ccccc1)N1C[C@H](Cc2ccccc2)N(CC2CCCC2)C1=N (some centres not stated)

>  <test-system>
Mycobacterium tuberculosis

>  <result>
7.8 µg/mL

$$$$
>  <compound>
NC[C@H](Cc1ccccc1)NC[C@@H]1CCCN1C[C@H](Cc1ccccc1)NC[C@H](Cc1ccccc1)NCCc1ccc(-c2ccccc2)cc1

>  <test-system>
Mycobacterium tuberculosis

>  <result>
> 6.25 µg/mL

$$$$
>  <compound>
c1ccc(CCN2CCN([C@@H](Cc3ccccc3)CN3CCCC3CN3CCNC[C@@H]3Cc3ccccc3)C[C@@H]2CC2CCCCC2)cc1 (some centres not stated)

>  <test-system>
Mycobacterium tuberculosis

>  <result>
3.9 µg/mL

$$$$

The record that follows has no MIC shown yet.
Q. Which MIC value is on record for c1ccc(C[C@H]2CNCCN2CC2CCCN2C[C@H](Cc2ccccc2)N2CCN(CC3CCCCC3)[C@@H](Cc3ccccc3)C2)cc1 (some centres not stated) ?
A. 3.9 µg/mL

Origin of values: ChEMBL document CHEMBL1153803
